meta.source: PubChem BioAssay (NCI)

- Test system: SR leukemia
- TEST SUMMARY: NCI tumour cell line growth inhibition, 48 h; in the data active means GI50 below about 0.43 µM; inactive means the rest
Labels: YES for active, NO for inactive

>>> print(df.to_string())
                            compound_smiles  category
0  C[C@]12CC[C@@H]3c4ccc(O)c([N+](=O)[O-])c4CC[C@H]3[C@@H]1CC[C@@H]2NS(=O)(=O)c1ccc(C(F)(F)F)cc1        NO
1  COc1ccc(Cl)cc1Nc1nc(C(F)(F)F)ccc1C(=O)NN       YES
2  Clc1ccc([O][In]([O]c2ccc(Cl)cn2)[O]c2ccc(Cl)cn2)nc1        NO
3  CCOC(=O)c1c(NC(=O)c2ccc(C(C)C)cc2)sc2c(CN(C)C)c(O)ccc12        NO
4  O=C(O)c1cc[c]([Hg][S]c2ncnc3nc[nH]c23)cc1        NO
5  CCN1CCN(Cc2ccc(NC(=O)Nc3ccc(-n4ccc5c(NC(=O)c6ccccc6)nccc54)cc3)cc2C(F)(F)F)CC1       YES
6  COc1ccc2nc(-c3ccccc3)cc(Nc3cccc(/C(C)=N\O)c3)c2c1        NO
7  COc1ccc(OC)c(-c2cc(-c3ccccc3)nn2-c2ccc(S(=O)(=O)NC(C)=O)cc2)c1        NO
